- method: Plasma pharmacokinetics of nilotinib in the combination
- Type: in vivo
- run.parameters: human, oral, Mean nilotinib AUC(0–24hours), day 8, DL3 (400 mg nilotinib twice daily, 80 mg/m^2 paclitaxel)
measured.attribute: AUC(0-t) (µM·h)
One number for each entry, in µM·h.

I'd like to know its AUC(0-t). The molecule in question is Cc1cn(-c2cc(NC(=O)c3ccc(C)c(Nc4nccc(-c5cccnc5)n4)c3)cc(C(F)(F)F)c2)cn1
90.4
